system: NCI/ADR-RES ovarian; assay: NCI tumour cell line growth inhibition, 48 h
readout: TGI

# compound, test_result
records = [
    ("NC(=O)c1ccc(N)nc1", "> 400 µM"),
    ("O=C(O)c1cc(/C=C/c2ccc(O)c(O)c2)ccc1O", "> 100 µM"),
    ("Cc1cc([C@H](C#N)c2nc3ccccc3s2)nc(Cl)n1", "10.8 µM"),
    ("CN(CCN(C)Cc1ccc(Cl)c(Cl)c1)CCN1CCCC1", "> 100 µM"),
    ("O=C1OS2(OC(=O)c3cccc4cccc2c34)c2ccccc21 (configuration not stated)", "> 100 µM"),
    ("Nc1c2c(nc3ccccc13)-c1ccccc1CCC2", "34.3 µM"),
    ("CC(=O)NC1=NC(=O)/C(=C/c2ccc(Cl)cc2Cl)N1C", "> 100 µM"),
    ("CC(CCC(=O)O)(c1cc(Br)c(O)c(Br)c1)c1cc(Br)c(O)c(Br)c1", "> 100 µM"),
    ("C(=C/c1ccc2nc(-c3ccc(/C=C/C=N/NC4=NCCCN4)cc3)cn2c1)/C=N/NC1=NCCCN1", "51.7 µM"),
    ("CC(C)=CCNc1ncnc2c1ncn2C1OC(COP(=O)(O)O)C(O)C1O (configuration not stated)", "> 100 µM"),
    ("O=C(O)CSc1ccn(Cc2ccccc2)c1", "> 100 µM"),
    ("O=C1C=Cc2cc3ccccc3c3cccc1c23", "19.2 µM"),
    ("Nc1c(Cl)ncnc1NCC1(CO)CCC1", "> 100 µM"),
    ("CCCc1c(OC)c(O)c2c(=O)cc(OC)c3c4c(OC)cc(=O)c5c(O)c(OC)c(CCC)c(c1c23)c54", "25.1 µM"),
    ("CS(=O)(=O)c1ccc(C2=C(c3ccccc3)C(=O)OC2)cc1", "> 100 µM"),
    ("CC(=O)Nc1ccc(S(=O)(=O)/N=c2/sc(S(N)(=O)=O)nn2C)cc1", "> 100 µM"),
    ("CCOC(=O)C(C(N)=O)c1nc2cc([N+](=O)[O-])ccc2nc1/C=C(\\O)c1ccc(C)cc1 (configuration not stated)", "53 µM"),
    ("COC12OC3(C4OC41)C(C(=O)O[C@H]3CO[Si](C)(C)C(C)(C)C)C2S(=O)(=O)c1ccccc1 (some centres not stated)", "> 100 µM"),
    ("COc1ccc(NC(=O)c2cc(NC(=O)/C=C/c3ccccc3)c(OC)c(OC)c2)cc1", "> 100 µM"),
    ("Cc1cc(C)c2c(=O)n(CC(O)CN3CCN(c4ncccn4)CC3)sc2n1 (configuration not stated)", "78 µM"),
    ("O=C1NC(N2CCOCC2)=N/C1=C\\c1ccccc1", "> 100 µM"),
    ("O=C1CCCc2ccc3c(c21)CC1(Cc2cc4c(cc2C1)CCCC4)C3", "> 100 µM"),
    ("COc1cc(C2C3=C(COC3=O)N(CCO)c3cc4c(cc32)OCCO4)cc(OC)c1O (configuration not stated)", "> 50 µM"),
    ("CS(=O)(=O)c1nc(-c2cc3c(c(S(C)(=O)=O)n2)CCC3)cc2c1CCC2", "> 100 µM"),
    ("COC(=O)/C=C1\\C(=O)N(C(C)=O)c2ccccc21", "62.8 µM"),
    ("O=C(O)CC(Cc1ccccc1)C(=O)O (configuration not stated)", "> 100 µM"),
    ("COc1cc(C(C)(C)C)c(OC(=O)/C=C/C(=O)O/C=C/[N+](=O)[O-])c(C(C)(C)C)c1", "57.8 µM"),
    ("Cc1ccc(NC(=O)C(=O)C2C(=O)C3=C(CC2(C)C)NC2C=CC=CC2S3)c(C)c1 (configuration not stated)", "> 100 µM"),
    ("O=C1c2cc(Br)ccc2-c2c1c1ccccc1c(=O)n2CCCCl", "60.1 µM"),
    ("CCOC(=O)C(NC(=O)Nc1ccccc1)(Nc1cccc(Cl)c1)C(F)(F)F (configuration not stated)", "> 100 µM"),
    ("CSCC[C@@H](NC(=O)[C@H](CC(C)C)NC(=O)C(Cc1cnc[nH]1)NC(=O)CNC(=O)[C@@H](NC(=O)[C@H](C)NC(=O)[C@H](Cc1cn(C=O)c2ccccc12)NC(=O)[C@H](CCC(N)=O)NC(=O)[C@@H](N)CC(N)=O)C(C)C)C(N)=O (some centres not stated)", "> 100 µM"),
    ("CC(C)OCC(O)COc1cc(=O)oc2ccccc12 (configuration not stated)", "> 100 µM"),
    ("O=C(/C=C/c1ccco1)c1ccc(Nc2ccnc3cc(Cl)ccc23)cc1", "> 100 µM"),
    ("CC(C)n1c2c(c3ccccc3c1=O)C(=O)c1ccccc1-2", "> 100 µM"),
    ("O=C(O)C(C1NCCS1)N1Cc2ccccc2C1 (configuration not stated)", "> 100 µM"),
    ("C=C1c2c(C)nn(-c3ccccc3)c2N(C)C23C[C@@H]1C1(C)c4c(C)nn(-c5ccccc5)c4N(C)C(C)(C[C@H]12)C3 (some centres not stated)", "> 100 µM"),
    ("O=C1CCc2cc([N+](=O)[O-])ccc2O1", "> 100 µM"),
]
